Value source: patent US20240270821A1

- target desc: T1, human GIP receptor (human) (UniProt P48546)
- T1 sequence (looked up): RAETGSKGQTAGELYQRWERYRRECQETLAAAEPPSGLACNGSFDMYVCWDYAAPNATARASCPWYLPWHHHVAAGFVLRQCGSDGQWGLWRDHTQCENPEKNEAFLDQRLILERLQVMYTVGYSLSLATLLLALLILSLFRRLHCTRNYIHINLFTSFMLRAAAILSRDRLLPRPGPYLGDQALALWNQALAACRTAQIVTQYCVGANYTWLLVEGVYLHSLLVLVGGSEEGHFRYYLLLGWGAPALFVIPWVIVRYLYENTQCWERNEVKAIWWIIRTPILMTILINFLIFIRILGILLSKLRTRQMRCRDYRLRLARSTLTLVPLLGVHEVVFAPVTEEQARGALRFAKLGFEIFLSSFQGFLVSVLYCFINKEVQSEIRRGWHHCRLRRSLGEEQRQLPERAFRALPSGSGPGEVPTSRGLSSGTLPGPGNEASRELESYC
- assay comment: cell-based or functional assay
test readout: Relative cAMP EC50 (pM)
Enter your answer as a number in pM; do not include the unit.

Prompt line: Need Relative cAMP EC50, item YXQGTFTSDFSKXLDKKAQXAFIEYLIEGGESSGAPPPSGS (Lys acylated with AEEA-γGlu-C18 diacid; non-natural residues; C-amide; synthetic construct; SITE 2: note = 2-Aminoisobutyric Acid; SITE 13: note = alpha-methyl-leucine; SITE 17: note = Lysine is chemically modified through conjugation of the epsilon-amino group of the Lysine side chain with (2-[2-(2-Amino-ethoxy)-ethoxy]-acetyl)-(gamma-Glu)-CO-(CH2) 16-CO2H; SITE 20: n) [Example 215]
Response line: 418

Prompt line: Can you check YXQGTFTSDFSQXLDKKAQXAFIEYLLEAGPSSXAPPPSGT (no C-terminal amide; synthetic construct; SITE 2: note = 2-Aminoisobutyric Acid; SITE 13: note = alpha-methyl-leucine; SITE 17: note = Lysine is chemically modified through conjugation of the epsilon-amino group of the Lysine side chain with (2-[2-(2-Amino-ethoxy)-ethoxy]-acetyl)-(gamma-Glu)-CO-(CH2) 16-CO2H; SITE 20: n) [Example 780] next?
Response line: 111

Prompt line: Can you check YXQGTFTSDFSXXLDKKAQXAFIEWLLEGGXSSGAPPPSGT (synthetic construct; SITE 2: note = 2-Aminoisobutyric Acid; SITE 12: note = L-ornithine; SITE 13: note = alpha-methyl-leucine; SITE 17: note = Lysine is chemically modified through conjugation of the epsilon-amino group of the Lysine side chain with (2-[2-(2-Amino-ethoxy)-ethoxy]-acetyl)-(gamma-Glu)) [Example 268] next?
Response line: 274

Prompt line: Can you check YXQGTXTSDXXIXLDXKAQXXFIEXLQEGGPSSGEPPPSGTE (synthetic construct; SITE 2: note = 2-Aminoisobutyric Acid; SITE 6: note = alpha-methyl-2-fluoro-L-phenylalanine; SITE 10: note = 3-(4-Pyridyl)-L-alanine; SITE 11: note = alpha-methyl-L-serine; SITE 13: note = alpha-methyl-leucine; SITE 16: note = L-ornithine; SITE 17: note = Lysine is chemically mo) [Example 504] next?
Response line: 36.4

Prompt line: Can you check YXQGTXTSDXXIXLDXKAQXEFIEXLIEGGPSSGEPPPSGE (non-natural residues; Lys acylated C18 diacid via AEEA-γGlu2; C-term amide; synthetic construct; SITE 2: note = 2-Aminoisobutyric Acid; SITE 6: note = alpha-methyl-2-fluoro-L-phenylalanine; SITE 10: note = 3-(4-Pyridyl)-L-alanine; SITE 11: note = alpha-methyl-L-serine; SITE 13: note = alpha-methyl-leucine; SITE 16: note = L-ornithine; SITE 17: note = Lysine is chemically mo) [Example 1177] next?
Response line: 11.4

Prompt line: Can you check YXQGTFTSDXSQXLDKKAQXAFIEXLLEGGPSSGAPPPSGS (synthetic construct; SITE 2: note = 2-Aminoisobutyric Acid; SITE 10: note = 3-(4-Pyridyl)-L-alanine; SITE 13: note = alpha-methyl-leucine; SITE 17: note = Lysine is chemically modified through conjugation of the epsilon-amino group of the Lysine side chain with (gamma-Glu)2-CO-(CH2)16-CO2H; SITE 20:) [Example 938] next?
Response line: 130
